Test system: P12-Ichikawa
PROTOCOL NOTES: cell viability relative to DMSO control; higher = less cytotoxic
CONDITION: RPMI 5 mM glucose + 10% dialyzed FBS; 48 h; 0.0211 µM
This section presents molecules with their documented cell viability values.
Answer format: numeric, % implied, no suffix.

// known answers, use as guide
{"MOLECULE": "Cc1cc(-c2nnc3n2CCCCC3)c(C)n1-c1ccccc1", "ASSAY SYSTEM": "P12-Ichikawa", "PROPERTY NAME": "cell viability", "UNITS LABEL": "%", "MEASURED": 125}
{"MOLECULE": "CN(C)CC[C@H](CSc1ccccc1)Nc1ccc([S+](=O)([O-])NC(=O)c2ccc(N3CCN(Cc4ccccc4-c4ccc(Cl)cc4)CC3)cc2)cc1[N+](=O)[O-]", "ASSAY SYSTEM": "P12-Ichikawa", "PROPERTY NAME": "cell viability", "UNITS LABEL": "%", "MEASURED": 124}
{"MOLECULE": "CCCNCC(O)COc1ccccc1C(=O)CCc1ccccc1 (configuration not stated)", "ASSAY SYSTEM": "P12-Ichikawa", "PROPERTY NAME": "cell viability", "UNITS LABEL": "%", "MEASURED": 103}
{"MOLECULE": "O=C(Nc1ccc([N+](=O)[O-])cc1Cl)c1cc(Cl)ccc1O", "ASSAY SYSTEM": "P12-Ichikawa", "PROPERTY NAME": "cell viability", "UNITS LABEL": "%", "MEASURED": 91.9}
{"MOLECULE": "CCN1\\C=C(C(O)=O)/C(=O)C2=C1C=C(N3CCN(C)CC3)C(=C2)F", "ASSAY SYSTEM": "P12-Ichikawa", "PROPERTY NAME": "cell viability", "UNITS LABEL": "%", "MEASURED": 121}
{"MOLECULE": "CN(C)/[N+]([O-])=N/Oc1cc(ON[N+](=O)N2CCN(C(=O)c3cc(Cc4n[nH]c(=O)c5ccccc45)ccc3F)CC2)c([N+](=O)[O-])cc1[N+](=O)[O-]", "ASSAY SYSTEM": "P12-Ichikawa", "PROPERTY NAME": "cell viability", "UNITS LABEL": "%", "MEASURED": 101}

Shifting focus to the molecule that follows.
input: Kindly state the measured cell viability obtained for FC1=CC=C(CN2\C=C/C=C(/C(=O)N[C@@H](COC3=CC4=C(NC(=O)N4)C=C3)C5=CC=CC=C5)C2=O)C=C1F with P12-Ichikawa.
output: 94.6

* * *

System: SEM cells
PROTOCOL NOTES: AUC of viability dose-response curve (% viability x log10 dose units); higher = less sensitive
CONDITION: HPLM + 10% dialyzed FBS; 48 h
This section presents compounds with their documented AUC of viability dose-response curve values.
Please respond with just the number, no unit label.

{"COMPOUND": "Nc1nc(Nc2ccc([S+](N)(=O)[O-])cc2)nn1C(=O)c1c(F)cccc1F", "AUC of viability dose-response curve": 397}
{"COMPOUND": "NC/1=N/C(=O)N(C[C@@H](CO)OC[P](O)(O)=O)/C=C1", "AUC of viability dose-response curve": 455}
{"COMPOUND": "CCNC(=O)Nc1ccc(-c2nc3c(c(N4CCOC[C@@H]4C)n2)CCN(C2COC2)C3)cc1", "AUC of viability dose-response curve": 366}
{"COMPOUND": "CCOC(=O)C(C)(C)Oc1ccc(Cl)cc1", "AUC of viability dose-response curve": 465}
{"COMPOUND": "CC(=O)Oc1cc2c(s1)CCN(C(C(=O)C1CC1)c1ccccc1F)C2.Cl (stereo not drawn)", "AUC of viability dose-response curve": 466}
{"COMPOUND": "CN1/C=C(\\N=C(NC2=CC=C(C=C2)C(=O)N3CCOCC3)/C1=O)/C4=C(C)C(=CC=C4)NC(=O)C5=CC=C(C=C5)C(C)(C)C", "AUC of viability dose-response curve": 468}

input: What value of measured AUC of viability dose-response curve is listed for C[C@H]1C[C@H]2[C@@H]3CCC4=CC(=O)C=C[C@]4(C)[C@H]3C(=O)C[C@]2(C)[C@@]1(O)C(=O)CO ?
output: 390

input: Ok, now COC1=CC(=CC=C1)C2=CC=C(NC(=O)/C3=C(/CCC3)C(O)=O)C(=C2)F
output: 465

input: Ok, now O=C1c2c(O)cc(O)cc2O[C@H](c2cc(O)c(O)c(O)c2)[C@H]1O
output: 426

input: Ok, now COc1cc(Nc2ncc(F)c(Nc3ccc4c(n3)N(COP(=O)(O)O)C(=O)C(C)(C)O4)n2)cc(OC)c1OC
output: 287

input: Ok, now OC1=CC2=C(C(=O)\C=C(/O2)C3=CC=CC=C3)C(=C1O)O
output: 407

input: Ok, now Cc1nnc(N[S+](=O)([O-])c2ccc(N)cc2)s1
output: 450

input: Ok, now CC[C@@H](C(N)=O)N1CCCC1=O
output: 450

* * *

Tested on: NOMO1
PROTOCOL NOTES: cell viability relative to DMSO control; higher = less cytotoxic
CONDITION: RPMI 5 mM glucose + 10% dialyzed FBS; 48 h; 0.00702 µM
This section presents molecules with their documented cell viability values.
Answer format: numeric, % implied, no suffix.

{"SMILES TEXT": "CCCCCCCCOc1ccccc1C(=O)Nc1ccc(C(=O)OCC[N+](C)(CC)CC)cc1", "ASSAY SYSTEM": "NOMO1", "MEASURED": 96.6}

input: What value of measured cell viability is listed for C[N]1N=CC2=C1C=C(C(=C2)OC3=CC=C(NC(=O)\C4=C\C=C(\C)N(C4=O)C5=CC=C(F)C=C5)C=C3F)C6=C[NH]N=C6 ?
output: 118

input: Ok, now C[C@@H](NCc1cc2ccccc2[nH]1)c1cccc2ccccc12
output: 89

input: Ok, now NCCCC(O)(P(=O)(O)O)P(=O)(O)O.O.O.O.[Na+]
output: 107

input: Ok, now C[C@]12CC[C@@H]3c4ccc(O)cc4CC[C@H]3[C@@H]1CC[C@@H]2O
output: 105

* * *

Tested on: NOMO1
PROTOCOL NOTES: cell viability relative to DMSO control; higher = less cytotoxic
CONDITION: RPMI 5 mM glucose + 10% FBS; 48 h; 0.000781 µM
This section presents molecules with their documented cell viability values.
Answer format: numeric, % implied, no suffix.

{"MOLECULE": "CN1/C=C(\\N=C(NC2=CC=C(C=C2)C(=O)N3CCOCC3)/C1=O)/C4=C(C)C(=CC=C4)NC(=O)C5=CC=C(C=C5)C(C)(C)C", "UNITS LABEL": "%", "cell viability": 91.4}
{"MOLECULE": "FC1=CC=C(CN2\\C=C/C=C(/C(=O)N[C@@H](COC3=CC4=C(NC(=O)N4)C=C3)C5=CC=CC=C5)C2=O)C=C1F", "UNITS LABEL": "%", "cell viability": 77.8}
{"MOLECULE": "Cc1cccc(N(C)C(=S)Oc2ccc3ccccc3c2)c1", "UNITS LABEL": "%", "cell viability": 99.9}
{"MOLECULE": "C/C(=C\\c1csc(C)n1)[C@@H]1C[C@@H]2O[C@]2(C)CCC[C@H](C)[C@H](O)[C@@H](C)C(=O)C(C)(C)[C@@H](O)CC(=O)O1", "UNITS LABEL": "%", "cell viability": 14.1}
{"MOLECULE": "OCCNC1CCCc2c1[nH]c1ccc(-c3ccccc3)cc21 (configuration not stated)", "UNITS LABEL": "%", "cell viability": 93.4}

input: What value of measured cell viability is listed for C[N+](C)(C)CC(=O)O.[Cl-] ?
output: 77.1

input: Ok, now O=[S+]([O-])(/N=C/c1c(O)ccc2ccccc12)c1cccs1
output: 113

* * *

Tested on: SEM cells
PROTOCOL NOTES: AUC of viability dose-response curve (% viability x log10 dose units); higher = less sensitive
CONDITION: RPMI 5 mM glucose + 10% dialyzed FBS; 48 h
PROPERTY NAME: AUC of viability dose-response curve
Please respond with just the number, no unit label.

// known answers, use as guide
{"COMPOUND": "COc1ccccc1OCCNCC(O)COc1cccc2[nH]c3ccccc3c12 (centres undefined)", "PROPERTY NAME": "AUC of viability dose-response curve", "MEASURED": 467}
{"COMPOUND": "C[C@H]1C[C@H]2[C@@H]3CCC4=CC(=O)C=C[C@]4(C)[C@H]3C(=O)C[C@]2(C)[C@@]1(O)C(=O)CO", "PROPERTY NAME": "AUC of viability dose-response curve", "MEASURED": 401}
{"COMPOUND": "CO[C@@H]1[C@@H](OC(N)=O)[C@@H](O)[C@H](OC2=CC=C3\\C(=C(NC(=O)C4=CC=C([O-])C(=C4)CC=C(C)C)/C(=O)OC3=C2C)O)OC1(C)C", "PROPERTY NAME": "AUC of viability dose-response curve", "MEASURED": 461}
{"COMPOUND": "COc1ccc(CC2c3cc(OC)c(OC)cc3CC[N+]2(C)CCC(=O)OCCCCCOC(=O)CC[N+]2(C)CCc3cc(OC)c(OC)cc3C2Cc2ccc(OC)c(OC)c2)cc1OC (centres undefined)", "PROPERTY NAME": "AUC of viability dose-response curve", "MEASURED": 401}
{"COMPOUND": "Cc1nnc(N[S+](=O)([O-])c2ccc(N)cc2)s1", "PROPERTY NAME": "AUC of viability dose-response curve", "MEASURED": 449}
{"COMPOUND": "O=C([O-])[C@H](CC(=O)N1C[C@H]2CCCC[C@H]2C1)Cc1ccccc1", "PROPERTY NAME": "AUC of viability dose-response curve", "MEASURED": 374}
{"COMPOUND": "O=P1(N(CCCl)CCCl)NCCCO1 (centres undefined)", "PROPERTY NAME": "AUC of viability dose-response curve", "MEASURED": 406}
{"COMPOUND": "CNNCc1ccc(C(=O)NC(C)C)cc1", "PROPERTY NAME": "AUC of viability dose-response curve", "MEASURED": 448}
{"COMPOUND": "Cc1ccc(NC(=O)Nc2cc(C(F)(F)F)ccc2F)cc1Nc1ccc2c(c1)NC(=O)/C2=C\\c1ccc[nH]1", "PROPERTY NAME": "AUC of viability dose-response curve", "MEASURED": 428}
{"COMPOUND": "C[C@]12CC[C@@H]3c4ccc(O)cc4CC[C@H]3[C@@H]1CC[C@@H]2O", "PROPERTY NAME": "AUC of viability dose-response curve", "MEASURED": 431}

input: What value of measured AUC of viability dose-response curve is listed for OC1=CC2=C(C(=O)\C=C(/O2)C3=CC=CC=C3)C(=C1O)O ?
output: 402

input: Ok, now CCCCCCCCOc1ccccc1C(=O)Nc1ccc(C(=O)OCC[N+](C)(CC)CC)cc1
output: 460

input: Ok, now COC(=O)Nc1ccc(-c2nc(N3CCOCC3)c3cnn(C4CCN(Cc5cccnc5)CC4)c3n2)cc1
output: 249

input: Ok, now CCC(=O)OC1CCC2C3CCC/4=C/C(=O)CC[C@@]4(C)C3CC[C@]12C (some centres undefined)
output: 448

input: Ok, now Nc1nc(Nc2ccc([S+](N)(=O)[O-])cc2)nn1C(=O)c1c(F)cccc1F
output: 399

input: Ok, now Nc1nc2ccc(OC(F)(F)F)cc2s1
output: 461

input: Ok, now Cc1cc(SCc2sc(-c3ccc(C(F)(F)F)cc3)nc2C)ccc1OCC(=O)O
output: 457

input: Ok, now CCCNCC(O)COc1ccccc1C(=O)CCc1ccccc1 (centres undefined)
output: 432

input: Ok, now CCOC(=O)C(C)(C)Oc1ccc(Cl)cc1
output: 476
